SUBJECT OF TEST: Beta-secretase 1 (Homo sapiens)
METHOD: Inhibition of human recombinant BACE1 by FRET assay
OBSERVED PROPERTY: IC50 (nM)

Reference set, count: 3
1) CC(C)C[C@H](NC(=O)[C@@H](NC(=O)[C@@H](N)CNC(=O)c1[nH]c(=O)[nH]c(=O)c1F)C(C)C)C(=O)N[C@@H](Cc1ccccc1)[C@@H](O)C(=O)NC1(c2ccccc2)CCCCC1 | 24.8
2) CC(C)[C@H](NC(=O)[C@@H](N)CNC(=O)c1[nH]c(=O)[nH]c(=O)c1F)C(=O)N[C@@H](CC1CCCCC1)C(=O)N[C@@H](Cc1ccccc1)[C@@H](O)C(=O)N[C@H](C)c1ccccc1 | 39.6
3) CC(C)[C@H](NC(=O)[C@@H](N)CNC(=O)c1[nH]c(=O)[nH]c(=O)c1F)C(=O)N[C@@H](CC1CCCCC1)C(=O)N[C@@H](Cc1ccccc1)[C@@H](O)C(=O)N[C@@H](C)c1ccccc1 | 24.2

I. CC(C)C[C@H](NC(=O)[C@@H](NC(=O)[C@@H](N)CNC(=O)c1[nH]c(=O)[nH]c(=O)c1F)C(C)C)C(=O)N[C@@H](Cc1ccccc1)[C@@H](O)C(=O)N[C@@H](C)c1ccccc1
II. CC(C)C[C@H](NC(=O)[C@@H](NC(=O)[C@@H](N)CNC(=O)c1[nH]c(=O)[nH]c(=O)c1F)C(C)C)C(=O)N[C@@H](Cc1ccccc1)[C@@H](O)C(=O)N[C@H](C)c1ccccc1
[Q] From the recorded data, which exceeds the other in IC50: I or II ? Refer to your chosen item by its label in the answer.
[A] II
(II: 34.8 nM, I: 20.4 nM)

====

SUBJECT OF TEST: Beta-secretase 1 (Homo sapiens, UniProt P56817)
Sequence (P56817 whole entry): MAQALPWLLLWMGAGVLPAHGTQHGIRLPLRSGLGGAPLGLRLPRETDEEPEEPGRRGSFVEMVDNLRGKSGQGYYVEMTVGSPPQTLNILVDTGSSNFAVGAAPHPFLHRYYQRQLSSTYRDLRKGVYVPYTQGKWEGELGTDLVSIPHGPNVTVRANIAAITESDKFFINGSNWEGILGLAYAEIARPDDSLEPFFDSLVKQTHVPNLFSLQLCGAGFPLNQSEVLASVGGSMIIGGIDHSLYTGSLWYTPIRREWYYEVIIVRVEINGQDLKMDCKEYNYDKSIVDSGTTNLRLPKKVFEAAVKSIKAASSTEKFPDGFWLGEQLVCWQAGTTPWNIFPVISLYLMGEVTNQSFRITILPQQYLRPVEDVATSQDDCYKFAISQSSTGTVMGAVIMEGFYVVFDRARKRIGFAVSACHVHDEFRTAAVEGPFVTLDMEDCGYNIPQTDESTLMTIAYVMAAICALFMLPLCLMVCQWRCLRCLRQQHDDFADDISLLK
METHOD: Inhibition of human recombinant BACE1 at 0.2 uM by FRET assay
OBSERVED PROPERTY: inhibition (%)

Reference set, count: 3
1. CC(C)[C@H](NC(=O)[C@@H](N)CNC(=O)c1[nH]c(=O)[nH]c(=O)c1F)C(=O)N[C@@H](CC1CCCCC1)C(=O)N[C@@H](Cc1ccccc1)[C@@H](O)C(=O)NC1(c2ccccc2)CCCCC1 | 77
2. CC(C)[C@H](NC(=O)[C@@H](N)CNC(=O)c1[nH]c(=O)[nH]c(=O)c1F)C(=O)N[C@@H](CC1CCCCC1)C(=O)N[C@@H](Cc1ccccc1)[C@@H](O)C(=O)NC1(c2ccccc2)CCCC1 | 84
3. CC(C)[C@H](NC(=O)[C@@H](N)CNC(=O)c1[nH]c(=O)[nH]c(=O)c1F)C(=O)N[C@@H](CC1CCCCC1)C(=O)N[C@@H](Cc1ccccc1)[C@@H](O)C(=O)NC(C)(C)c1ccccc1 | 78

a. CC(C)C[C@H](NC(=O)[C@@H](NC(=O)[C@@H](N)CNC(=O)c1[nH]c(=O)[nH]c(=O)c1F)C(C)C)C(=O)N[C@@H](Cc1ccccc1)[C@@H](O)C(=O)NC1(c2ccccc2)CCCC1
b. CC(C)C[C@H](NC(=O)[C@@H](NC(=O)[C@@H](N)CNC(=O)c1cc(O)ccc1O)C(C)C)C(=O)N[C@@H](Cc1ccccc1)[C@@H](O)C(=O)N[C@@H](C)c1ccccc1
[Q] Which has the smaller recorded inhibition, a or b ? Refer to your chosen item by its label in the answer.
[A] b
